All values here come from patent US20230278972A1.

system: kochia (Bassia scoparia); assay: Test A postemergence, kochia; type: in vivo; conditions: Postemergence, 31 g ai/ha; 0 to 100 scale (0 no effect, 100 complete control)
measurement.name: Plant response rating, Kochia

[Q] Would you mind telling me what Plant response rating, Kochia value was observed for COC1CCCN(C(=O)c2cc(N(COC(C)=O)S(=O)(=O)C(F)(F)F)c(C)cc2C)C1 (stereo not shown) ?
[A] 10

[Q] Can you handle CSC1CCCN(C(=O)c2cc(NS(=O)(=O)C(F)(F)F)c(C)cc2C)C1 (stereo not shown) next?
[A] 10

[Q] Ok, now CSc1cc(-c2cc(NS(=O)(=O)C(F)(F)F)c(C)cc2C)c(=O)n(C)n1
[A] 10

[Q] Next entry: CO[C@@H]1CCCN(C(=O)c2cc(N(S(=O)(=O)C(F)(F)F)S(=O)(=O)C(F)(F)F)c(C)cc2C)C1
[A] 10
